Values were extracted from patent US20180273635A1.

In this section, each of the binders is paired with its reported Bmax.
# testTarget: T1, HER2 expressed on the surface of cells (human, UniProt P04626 23-1255)
# T1 construct: whole, on cells; also called ErbB2
# assayRemarks: flow cytometry on BT474 cells, n=1
outcomeMeasure: Bmax (MFI)

binder: Variant 14020 (antibody, name in Kabat numbering, V domains shown, also called v14020) VH: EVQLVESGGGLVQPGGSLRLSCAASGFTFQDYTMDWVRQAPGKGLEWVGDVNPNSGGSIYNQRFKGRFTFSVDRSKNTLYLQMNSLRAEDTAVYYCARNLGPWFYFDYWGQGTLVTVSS VL: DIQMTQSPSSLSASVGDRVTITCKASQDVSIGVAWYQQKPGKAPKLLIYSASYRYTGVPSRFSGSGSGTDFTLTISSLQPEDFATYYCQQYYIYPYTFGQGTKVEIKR
outcomeMeasure: Bmax
measuredResult: 22000
//
binder: Variant 14023 (antibody, name in Kabat numbering, V domains shown, also called v14023) VH: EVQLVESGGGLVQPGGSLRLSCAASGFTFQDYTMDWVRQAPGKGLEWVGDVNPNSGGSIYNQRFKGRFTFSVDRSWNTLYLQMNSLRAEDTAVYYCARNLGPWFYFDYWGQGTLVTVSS VL: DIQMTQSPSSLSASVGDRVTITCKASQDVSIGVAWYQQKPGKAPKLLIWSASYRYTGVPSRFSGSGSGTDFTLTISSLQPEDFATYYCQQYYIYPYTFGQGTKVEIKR
outcomeMeasure: Bmax
measuredResult: 23000
